- Test system: CAKI-1
- PROTOCOL_TEXT: NCI tumour cell line growth inhibition, 48 h
Calls of active or inactive are those of the source. No stated cut-off is given here; in the data, active = GI50 up to about 1.1 µM and inactive = higher.
Possible outcomes: active, inactive

[[record]]
compound = "C/C(=N/NC(=S)N1CCCCC1)c1cccc(/C(C)=N\\NC(=S)N2CCCCC2)n1"
group = "inactive"

[[record]]
compound = "COc1ccccc1NC(=O)C1=C(C)NC(C)=C(C(=O)Nc2ccccc2OC)C1c1ccc(C)cc1"
group = "inactive"

[[record]]
compound = "C=C1CC(OC)(C(OC)C(=O)N(C)[C@H]2OCO[C@H]3C2O[C@H](C[C@@H](COC)OC)C(C)(C)C3OC)O[C@H](C)[C@@H]1C (stereo partly drawn)"
group = "inactive"

[[record]]
compound = "CC1=C(C(=O)OCc2ccncc2)C(C2=C(C)SCCS2)C(C(=O)OCc2ccncc2)=C(C)N1"
group = "inactive"

[[record]]
compound = "NC1(P(=O)(O)O)CCCCC1"
group = "inactive"

[[record]]
compound = "CC(OC(C)(C)C)[C@H](NC(=O)OCc1ccccc1)C(=O)NC(OCc1ccccc1)[C@H]1COC(C)(C)O1 (stereo partly drawn)"
group = "inactive"

[[record]]
compound = "N=C(N)NS(=O)(=O)c1ccc(NNc2c3ccccc3nc3c(C(=O)Nc4ccc(S(=O)(=O)Nc5ncccn5)cc4)cccc23)cc1"
group = "inactive"

[[record]]
compound = "COc1ccc(-c2nc(SCC(=O)NNC(=S)Nc3ccccc3)[nH]c2-c2ccc(OC)cc2)cc1"
group = "inactive"

[[record]]
compound = "CCOC(=O)CCC(NC(=O)c1ccc(OCc2nc3cc(C(F)(F)F)ccc3nc2-c2ccccc2)cc1)C(=O)OCC (stereo not drawn)"
group = "inactive"

[[record]]
compound = "CC(=O)NC(=O)/N=C1\\NCCC(=O)N1CCc1c[nH]c2ccccc12"
group = "inactive"

[[record]]
compound = "CN1CCC(c2c(O)cc(O)c3c(=O)cc(-c4ccccc4Cl)oc23)C(O)C1 (stereo not drawn)"
group = "active"

[[record]]
compound = "Cc1ccc(-n2c3nc(=O)n(C)c(=O)c-3nc3ccccc32)cc1"
group = "inactive"

[[record]]
compound = "COc1ccc2[nH]c3c(c2c1)CCN(C)CC3"
group = "inactive"

[[record]]
compound = "CNCc1cc(OC)ccc1-c1ccc(OC)c(OC)c1OC"
group = "inactive"

[[record]]
compound = "COc1ccc2[nH]c3c(C)c4c(c(C)c3c2c1)CN(C)CC4"
group = "inactive"

[[record]]
compound = "Cc1cc(C)c2c(c1)CC1(Cc3c(C)ccc(C)c3C1=O)C2=O (stereo not drawn)"
group = "inactive"

[[record]]
compound = "CNc1cccc2c1C(C)C[C@]1(C)C(=O)Nc3ccccc3[C@H]21 (stereo partly drawn)"
group = "inactive"

[[record]]
compound = "O=C1CCSCCC(=O)Nc2ccccc2N1"
group = "inactive"


----------
- Tested on: A498
- PROTOCOL_TEXT: NCI tumour cell line growth inhibition, 48 h
The source made the active and inactive calls. No stated cut-off is given here; in the data, active = GI50 up to about 1.1 µM and inactive = higher.
Possible outcomes: active, inactive

[[record]]
compound = "O=c1[nH]/c(=C/c2ccc(OCc3ccccc3)cn2)c(=O)[nH]/c1=C/c1ccccc1"
group = "active"

[[record]]
compound = "O=C1[C@@H]2[C@@H](c3ccccc3)[C@]2(Cl)C(=O)[C@H]2[C@H](c3ccccc3)[C@@]12Cl"
group = "inactive"

[[record]]
compound = "COc1cc(O)c(Cc2ccccc2O)c(O)c1C(=O)CCc1ccccc1"
group = "inactive"

[[record]]
compound = "Cn1c(N/N=C/c2ccc(Cl)cc2)nc(-c2ccc(Cl)cc2)c(C#N)c1=O"
group = "inactive"

[[record]]
compound = "OC1C#CCSCC#C/C=C\\1 (stereo unspecified)"
group = "inactive"

[[record]]
compound = "CNc1cccc2c1C(C)C[C@]1(C)C(=O)Nc3ccccc3[C@H]21 (stereo partly specified)"
group = "inactive"

[[record]]
compound = "C[Si](C)(C)/N=C1\\N2C(=NC1(C(F)(F)F)C(F)(F)F)Sc1ccccc12"
group = "inactive"

[[record]]
compound = "O=C1/C(=C/c2ccc(C(=O)O)cc2)CNC/C1=C\\c1ccc(C(=O)O)cc1"
group = "inactive"

[[record]]
compound = "CC(=O)c1cccc(NC(=O)C(=O)C(c2cnc3ccc([N+](=O)[O-])cc3n2)[N+](=O)[O-])c1 (stereo unspecified)"
group = "inactive"

[[record]]
compound = "Cc1cc(C)nc(NS(=O)(=O)c2ccc(Nc3c4ccc(Cl)cc4nc4c(C(=O)NCCN(C)C)cccc34)cc2)n1"
group = "inactive"

[[record]]
compound = "Oc1ccc2ccccc2c1OCc1nnc(CCCCCCCCc2nnc(COc3c(O)ccc4ccccc34)n2Nc2ccccc2)n1Nc1ccccc1"
group = "inactive"

